Where do these numbers come from? They come from patent US20170216295A1.

- ASSAY_EXPLANATION: Rat liver microsome clearance
- Format: in vitro ADME
- CONDITION_DETAILS: rat liver microsomes; 2 μM, 1 mg/mL rat hepatic microsomes, NADPH; read-out: Rat Microsome In Vitro CLint
Property: CLint scaled at 2 μM; scope: individual compounds
I only need the number, in L/h/kg, no unit after it.

Illustrative cases are given below, each with its answer.
CCc1nc2ncnn2c(O)c1Cc1ccc(C(C)(C)C#N)cc1 | 0.48
COCc1nc2ncnn2c(O)c1Cc1ccc(C(C)(C)C)cc1 | 22.4
CC(C)(C)c1ccc(Cc2c(C3CCC3)nc3ncnn3c2O)cc1 | 6.66

Turning now to a further compound:
The compound listed as Cc1nc2ncnn2c(O)c1Cc1ccc(C(C)(C)C)cc1 shows CLint scaled at 2 μM equal to 43
